Test system: intracellular HBV DNA
Assay: Real-time PCR for intracellular HBV DNA in HepAD38 cells
Format: cell-based
Settings: Hepatitis B virus, HePAD38, 65 h, 65 hours treatment
readout-type: pIC50
One number for each entry, as −log10 of the molar value.

Recorded pIC50 (compound CCOCCc1c(CN(C(=O)Nc2ccc(F)c(Cl)c2)c2ccc(OC)nc2)n[nH]c1C(F)(F)F ): 6.64

# context switch: different compound, same pIC50
Recorded pIC50 (compound N#Cc1cc(N(Cc2n[nH]c3c2CCCO3)C(=O)Nc2ccc(F)c(Cl)c2)ccn1 ): 6.46

====

System: intracellular HBV DNA
Assay: Real-time PCR for intracellular HBV DNA in HepAD38 cells
Type: cell-based
Conditions: Hepatitis B virus, HePAD38, 65 h, 65 hours treatment
Provide the recorded IC50 for the entries that follow.

Recorded IC50 (compound COc1ccc(N(Cc2n[nH]c3c2CCCC3)C(=O)Nc2ccc(F)c(Cl)c2)cc1 ): 9.9 nM

Recorded IC50 (compound COc1ncc(N(Cc2cc(C(F)(F)F)[nH]n2)C(=O)Nc2cccc(C#N)n2)cn1 ): > 1100 nM

Recorded IC50 (compound COC12CC(N(Cc3cc(C(F)(F)F)[nH]n3)C(=O)Nc3ccc(F)c(C(F)F)n3)(C1)C2 ): 220 nM

Recorded IC50 (compound COc1ncc(N(Cc2n[nH]c(C(F)(F)F)c2CC(C)(C)O)C(=O)Nc2ccc(F)c(C(F)F)c2)cn1 ): > 1100 nM

Recorded IC50 (compound COc1ncc(N(Cc2cc(C(F)(F)F)[nH]n2)C(=O)NC23CC(C)(C2)C3)cn1 ): > 1100 nM

Give IC50 for all compounds that follow.
1. COc1ncc(N(Cc2cc(C(F)F)[nH]n2)C(=O)Nc2cccc(C(F)F)c2)cn1
2. Cn1ccc(N(Cc2n[nH]c3c2CCCO3)C(=O)Nc2ccc(F)c(Cl)c2)n1
3. COc1ncc(N(Cc2cc(C(F)(F)F)[nH]n2)C(=O)Nc2ccnc(C#N)c2)cn1
4. COc1ncc(N(Cc2cc(C(F)(F)F)[nH]n2)C(=O)Nc2cc(F)c(F)cn2)cn1
5. COc1ncc(N(Cc2cc(C(F)(F)F)[nH]n2)C(=O)Nc2cc(N(C)C)c(F)c(Cl)n2)cn1

1: 22 nM; 2: > 1100 nM; 3: 120 nM; 4: 240 nM; 5: > 1100 nM

Give IC50 for all compounds that follow.
1. COc1cc(N(Cc2cc(C(F)(F)F)[nH]n2)C(=O)Nc2ccc(F)c(Cl)c2)cnn1
2. COc1ccc(N(Cc2cc(C(F)F)[nH]n2)C(=O)Nc2ccc(F)c(C(F)F)c2)nn1

["260 nM", "> 1100 nM"]

Give IC50 for all compounds that follow.
1. COc1ncc(N(Cc2cc(C#N)[nH]n2)C(=O)Nc2cccc(C(F)F)c2)cn1
2. COc1ncc(N(Cc2cc(C(F)(F)F)[nH]n2)C(=O)Nc2cc(F)c(F)c(Cl)c2)cn1

1: 64 nM; 2: 10 nM
